System: HCT-116
method description: NCI tumour cell line growth inhibition, 48 h
Calls of active or inactive are those of the source. Cut-off read from the data, not from the text of the source: active = GI50 up to about 1.1 µM and inactive = higher.
Write down one outcome, taken from active, inactive

Below, 5 molecules whose answers are already recorded.
CN1CCN(C(=O)c2cn(Cc3cncn3Cc3ccc4c(c3)OCO4)cc2-c2cccc3ccccc23)CC1; inactive
NS(=O)(=O)C1CCCCC1C(=O)NNC(=O)C(=O)Nc1nnc(S)[nH]1 (stereo not given); inactive
NC1=NS(=O)(=O)Nc2nc(-c3ccccc3)c(-c3ccccc3)nc21; inactive
CC(=O)OC1C/C(C)=C/[C@H](O)CC(C)/C=C/[C@@]2(C)CCC(C(C)(C)O)C12 (stereo not given in full); inactive
C[n+]1c2ccccc2c(C(=O)Nc2ccc(S(=O)(=O)Nc3ncccn3)cc2)c2ccccc21; inactive

Tell me the recorded outcome of this test for CC(C)C[C@H](NC(=O)[C@H](Cc1ccc(F)cc1)NC(=O)c1ccccn1)B(O)O .
active

Call for entry COc1ccc(-n2c(N)c(C#N)c(C#N)c2-c2ccccc2)cc1 :
inactive

Outcome logged for Cc1c2ccccc2c(CSC(=N)N)c2ccccc12 in this assay:
active

Assay outcome for CCCC(=O)NC(Nc1ccc(S(=O)(=O)Nc2nc(C)cc(C)n2)cc1)(C(F)(F)F)C(F)(F)F : what was it?
inactive

Record lookup: outcome of this test for CCCCCCc1ccc(O)cc1O ?
inactive

Record lookup: outcome of this test for FC(F)(F)c1ccc2c(-c3cc[nH]c3)ccnc2c1 ?
inactive

Kindly provide the recorded test outcome for the following molecule: O=C(Nc1ccc(Cl)cc1Cl)C(=O)Nn1c(S)nc2ccccc2c1=O
inactive

Status in this test for Cc1ccc2c(c1)CC1(C2=O)[C@H](c2ccccc2)C2C(=O)c3ccc(C)cc3C2[C@H]1c1ccccc1 (stereo not given in full) ?
inactive

In this assay, the call recorded for COC1(OC)CC2C(=O)N(Cc3ccccc3)C1C(S(=O)(=O)c1ccccc1)C2C(C)S(=O)(=O)c1ccccc1 (stereo not given) was what?
inactive

Hi, do you know how COc1cc(OC)c2c(=O)c3cccc(C)c3n(C)c2c1 came out in this test?
inactive

Give the logged outcome of this assay for the following molecule: CC(=O)c1ccc2c3c1[C@@H]1O[C@@H]1c1cccc(c1-3)[C@@H]1O[C@H]21
inactive

Answer briefly: the call reported for Nc1ccc(-c2cc(C(=O)Nc3nccs3)nc(S)n2)cc1 in this assay.
inactive

# lookup: test call for CC1=C(/C=C/C(C)=C/C=C/C(C)=C/C(=O)O)C(C)(C)CCC1
inactive

Entry CC12OC3CC(O1)C1(C=O)C4CCC5(C)C(c6ccc(=O)oc6)CCC5(O)C4CCC1(C3)O2 (stereo not given) : call = ?
active

Tell me the assay call for O=C(c1ccc(Cl)cc1)N(Cc1cccnc1)C(=S)N(Cc1cccnc1)C(=O)c1ccc(Cl)cc1 please.
inactive

====

System: K562
method description: NCI tumour cell line growth inhibition, 48 h
Active and inactive are the calls of the source. Rule as the data show it: active = GI50 up to about 1.1 µM and inactive = higher.
Entries and their GI50

C/C1=C\[C@H](C)C[C@H](C)OC(=O)C[C@H](c2ccc(O)cc2)NC(=O)[C@H](Cc2ccc(O)c(Br)c2)N(C)C(=O)[C@H](C)NC(=O)[C@@H](C)C1; > 25 µM (inactive)
Cc1ccsc1/C=N/NC1=NCCN1; > 100 µM (inactive)
O=[N+]([O-])C(=C(Nc1ccccc1)Nc1ccccc1)/C(Cl)=C(\Cl)[N+](=O)[O-]; 3.41 µM (inactive)

For this compound ( COc1cc(C)c(/C=C/C(=O)N2C(=O)OC[C@@H]2c2ccccc2)c(C)c1 ), measured GI50 is 78.9 µM (inactive)

Reported GI50 ( COC(=O)/C=C(\S/C=C(/c1ccccc1)N1CCn2c(C(=O)c3ccccc3)c(C(=O)OC)c(C(=O)OC)c21)C(=O)OC ) = 3.53 µM (inactive)

Please fill in: GI50 reported for CCO/C([O-])=C(\C(=O)c1ccccc1)[n+]1c(C)sc2ccccc21 = 81.3 µM (inactive)

Lab note: measured GI50 of Cn1ccc(=NS(=O)(=O)c2ccccc2)cc1 was > 100 µM (inactive)

Per the record, CCCCNC(=O)Cn1c2ccc(Br)cc2c2nc3ccccc3nc21 has GI50 of > 100 µM (inactive)

Documented GI50 of Cc1c(/C=N/NS(=O)(=O)c2ccccc2)no[n+]1[O-] : > 100 µM (inactive)

Entry CC(=O)Nc1ccc(S(=O)(=O)c2nnc(NC(C)=O)s2)cc1 — recorded GI50 = > 100 µM (inactive)

Entry under test: CC1CC[C@@]2(OC1)OC1C[C@H]3[C@@H]4CC=C5CC(OC6OC(CO)C(OC7OC(CO)C(O)C(OC8OCC(O)C(O)C8O)C7OC7OC(CO)C(OC8OC(C)C(OC9OC(C)C(O)C(O)C9O)C(O)C8O)C(O)C7O)C(O)C6O)CCC5(C)[C@H]4CCC3(C)C1[C@@H]2C (stereo not given in full) . Its GI50 was 8.05 µM (inactive)

Record summary for NCCC(=O)NC(Cc1c[nH]cn1)C(=O)O (stereo not given) : reported GI50 = > 100 µM (inactive)

Form field GI50, entry Cc1ccc(S(=O)(=O)C2=C([Si](C)(C)C)C3CC2[C@@H]2C4C=CC(CC4)[C@H]32)cc1 (stereo not given in full) : > 100 µM (inactive)

====

Tested on: EKVX
method description: NCI tumour cell line growth inhibition, 48 h
Activity calls are given as the source filed them. Cut-off read from the data, not from the text of the source: active = GI50 up to about 1.1 µM and inactive = higher.
Lab note: assign the record to one of true for active, false for inactive

NC(Cc1ccccc1)C(=O)N[C@H]1c2ccsc2/C(=N/O)[C@H]1O (some centres not stated); false

Short answer needed: outcome of this test for CCCCCCc1ccc(O)cc1O ?
false

# outcome recorded in this test, key = CO/N=C1/c2sccc2[C@H](NC(=O)C(F)(F)F)[C@@H]1O
false

Record request — test call for Cc1ccc(C2(O)CC(c3ccc([N+](=O)[O-])o3)=NN2C(=O)COc2ccccc2Cl)cc1 (configuration not stated)
false

Kindly provide the recorded test outcome for the following compound: COc1ccc(N2CN(C)CSC2=S)cc1
false

Hello, I am checking results. What call was entered for CC(C)NC(=O)OCc1c2c(n(C)c1COC(=O)NC(C)C)-c1ccccc1CC2 ?
false

What outcome does the record of this test show for O=[PH](O)c1cccs1 ?
false

Just curious, what result did COC(=O)/C=C(\C)CC(O)/C=C(\C)CCC=C(C)C (configuration not stated) get here?
false

Hi, do you know how NS(=O)(=O)C1CCCCC1C(=O)NNC(=O)C(=O)Nc1nnc(S)[nH]1 (configuration not stated) came out in this test?
false

I would be grateful if you could indicate the recorded call for CC1CC[C@@]2(OC1)OC1C[C@H]3[C@@H]4CC=C5CC(OC6OC(CO)C(OC7OC(CO)C(O)C(OC8OCC(O)C(O)C8O)C7OC7OC(CO)C(OC8OC(C)C(OC9OC(C)C(O)C(O)C9O)C(O)C8O)C(O)C7O)C(O)C6O)CCC5(C)[C@H]4CCC3(C)C1[C@@H]2C (some centres not stated) .
false

For this compound, state the assay outcome: O=C1c2cccc(O)c2C(=O)c2cccc(O)c21
false

For this compound, state the assay outcome: Cc1cccc(C)c1/N=N/c1ccc(O)c(CN(C)C)c1
false

Status in this test for S=c1sc2c(s1)SCCCCSCCCCSc1sc(=S)sc1SCCCCSCCCCS2 ?
false

How did this test come out for CCC/N=C(/NC(=O)c1ccc(Cl)cc1)SC ?
false

GET /call?item= COC(=O)C1CC(C=[N+](C)C)=C(SC)N1 (configuration not stated) returns the recorded outcome of this test.
false

Record lookup: outcome of this test for Nc1ccc(CCSSCCc2ccc(N)cc2)cc1 ?
false

Record lookup: outcome of this test for COc1ccc(C(=O)Cc2ccc(Br)cc2)cc1OC ?
false

Call for entry N/N=c1\[nH]c2ccccc2o1 :
false

====

Test system: HCC 2998
method description: NCI tumour cell line growth inhibition, 48 h
The source made the active and inactive calls. Cut-off read from the data, not from the text of the source: active = GI50 up to about 1.1 µM and inactive = higher.
measure name: GI50

Solved cases (4 shown):
Cc1ccc(S(=O)(=O)NC(C)C(=O)O)cc1 (centres undefined); > 100 µM (inactive)
Cc1ccc(S(=O)(=O)c2scc(-c3ccccc3)c2C)cc1; > 100 µM (inactive)
CCOc1nc2c(N3CCCC3)nc(N3CCNCC3)nc2nc1NCc1ccccc1; 1.34 µM (inactive)
CC(=O)O[C@@H]1[C@@H](O)C2=C3[C@]4(C)[C@@H]1C(C)(C)C(=O)C[C@@H]4[C@]3(O)[C@H](OC(C)=O)[C@@]1(C[C@@H]1C)C2=O; 15.4 µM (inactive)

# GI50 (molecule: COC(=NCCC1=CCCCC1)OC ) is 22 µM (inactive)

So, CCN(CC)CCSc1c(C(C)=O)c(=O)n(-c2ccccc2)c(=S)n1-c1ccccc1 ? Its GI50 was 11.9 µM (inactive)

====

Tested on: ACHN
method description: NCI tumour cell line growth inhibition, 48 h
Calls of active or inactive are those of the source. Cut-off read from the data, not from the text of the source: active = GI50 up to about 1.1 µM and inactive = higher.
Each entry below lists one item and its recorded GI50 value.

O=C(Cn1ccnc1[N+](=O)[O-])c1ccc(F)cc1; > 100 µM (inactive)
Cc1ccc(NCCCN2CCN(CCCNc3ccc(C)c4sc5ccccc5c(=O)c34)CC2)c2c(=O)c3ccccc3sc12; > 100 µM (inactive)
O=C(O)C/C(=C\c1ccco1)C(=O)O; > 100 µM (inactive)

The measured GI50 associated with O=[N+]([O-])C(=C(Nc1ccccc1)Nc1ccccc1)/C(Cl)=C(\Cl)[N+](=O)[O-] reads 2.61 µM (inactive)

Just so you know, measured GI50 for COC(=O)C1CC(C=[N+](C)C)=C(SC)N1 (stereo unspecified) came out at > 100 µM (inactive)

Lab book: GI50 of CCOC(=O)CN.CCOC(=O)Nc1ccc(S(=O)(=O)OC)cc1.CCOC(=O)Nc1ccc(S(=O)(=O)OC)cc1 noted as > 50 µM (inactive)

Per the record, Clc1ccc(C(c2ccc(Cl)cc2)c2cncnc2)cc1 has GI50 of 19.2 µM (inactive)

Lab note: measured GI50 of CC1(C)CCCC(C)(C2CCC3(C)C2C(O)CC2C4(C)CCC(O)C(C)(C)C4CCC23C)O1 (stereo unspecified) was 56.9 µM (inactive)

What the record says about C=C(C)[C@@H]1CC[C@@H](C)[C@](O)([C@@H]2C[C@@H]([C@H](COC(=O)c3ccccc3)OC(=O)c3ccccc3)OC2=O)C1 : GI50 is > 100 µM (inactive)

Short answer for COc1ccc2c(c1)OCC1(O)Cc3ccccc3OC21 (stereo unspecified) : GI50 was > 100 µM (inactive)

# GI50 of COc1cc(OC)c2c(=O)c3cccc(C)c3n(C)c2c1 = 51.3 µM (inactive)

Briefly, GI50 measured for Cc1ccc2c(c1)CC1(C2=O)[C@H](c2ccccc2)C2C(=O)c3ccc(C)cc3C2[C@H]1c1ccccc1 (stereo partly specified) : > 100 µM (inactive)

The compound listed as CCCC(=O)NC(Nc1ccc(S(=O)(=O)Nc2nc(C)cc(C)n2)cc1)(C(F)(F)F)C(F)(F)F shows GI50 equal to > 100 µM (inactive)

Sourced from ChEMBL document CHEMBL1201862
